Where these numbers come from: ChEMBL document CHEMBL5143537

test: Metabolic stability in rat liver microsomes assessed as parent compound remaining at 1 uM measured after 45 mins by LC-MS/MS analysis; type: ADME, Microsome; settings: read-out: Stability
METRIC_NAME: remaining at 0.75 h, 1 µM (%)
Express the result in % but write the number alone.

Report remaining at 0.75 h, 1 µM for "COc1cc2nc(N3CCN(CCCCCC(=O)NO)CC3)nc(NC3CCN(Cc4ccccc4)CC3)c2cc1OC" please.
14.2

###

system: HCT-116; test: Antiproliferative activity against human HCT-116 cells measured after 72 hrs by MTT assay; format: functional, cell-based; details: HCT-116, 72 h
Exercise: state measured IC50 for each of the compounds provided.

For the record "COc1cc2nc(NCCCCCCC(=O)NO)nc(NC3CCN(C)CC3)c2cc1OC" , what value of IC50 is listed for HCT-116?
> 50 µM

Let us now turn to "COc1cc2nc(N3CCN(Cc4ccc(/C=C/C(=O)NO)cc4)CC3)nc(NC3CCN(Cc4ccccc4)CC3)c2cc1OC"
> 50 µM

Likewise for "COc1cc2nc(N3CCN(CCCCCC(=O)NO)CC3)nc(NC3CCN(C(C)C)CC3)c2cc1OC" ?
> 50 µM
